Just for reference, patent US11452292B2 is where these values come from.

# System: E. coli K-12
# assay protocol: Biofilm, supplement/control, TB medium
# Assay type: cell-based
Would you kindly list Ratio, biofilm (supplement/control) for each of these compounds?
Numbers only.

I would be grateful if you could provide Ratio, biofilm (supplement/control) for each of the following entries.
1. NCCc1ccccc1 [PEA, β-phenylethylamine]
2. CCCCCCC(N)C(=O)O (racemic) [D,L-α-aminocaprylic acid]
3. O=C[C@H](O)[C@H](O)[C@@H](O)CO [L-lyxose]

[1.1, 0.85, 0.71]

Short answer please: Ratio, biofilm (supplement/control), E. coli K-12, entry NC(=O)C[C@@H](N)C(=O)O [D-asparagine]
1.07
